# MDCK Permeability (MDR1-MDCK); Mean; Papp(B-A) (10^−6 cm/s) values compiled below
System: MDR1-MDCK cell monolayers
assay explanation: MDR1/MDCK permeability assay
Assay type: in vitro ADME
reported conditions: B to A; Table 4

| compound | value measured |
| --- | --- |
| CCC1(c2cccc(-c3cc(C)ncc3C)c2)C2=C(CC(C)(C)CC2=O)Nc2ncccc21 (single isomer, unassigned) [Compound 1027B] | 30 10^−6 cm/s |
| CCC1(c2cccc(-c3ccccn3)c2)C2=C(CC(C)(C)CC2=O)Nc2ncccc21 (single isomer, unassigned) [Compound 1016A] | 32 10^−6 cm/s |
| CCC1(c2cccc(-c3cn(C)nc3C)c2)C2=C(CC(C)(C)CC2=O)Nc2ncc(F)cc21 (single isomer, unassigned) [Compound 1032B] | 26 10^−6 cm/s |
| CCC1(c2cccc(-c3ccnc4c3CCCC4)c2)C2=C(CC(C)(C)CC2=O)Nc2ncc(F)cc21 (single isomer, unassigned) [Compound 165B] | 24 10^−6 cm/s |
| CCC1(c2cccc(-c3cn(C)nc3C)c2)C2=C(CC(C)(C)CC2=O)Nc2ncccc21 (single isomer, unassigned) [Compound 1023A] | 27 10^−6 cm/s |
| CCC1(c2ccccc2)C2=C(CC(C)(C)CC2=O)Nc2ncccc21 (single isomer, unassigned) [102 B] | 29 10^−6 cm/s |
| CCC1(c2cccc(O)c2)C2=C(CC(C)(C)CC2=O)Nc2ncc(F)cc21 (single isomer, unassigned) [Compound 1010B] | 39 10^−6 cm/s |
| CCC1(c2cccc(-c3ccnc(C)c3C)c2)C2=C(CC(C)(C)CC2=O)Nc2ncccc21 (single isomer, unassigned) | 31 10^−6 cm/s |

[Q] Fill in the recorded MDCK Permeability (MDR1-MDCK); Mean; Papp(B-A) (10^−6 cm/s) for this compound, with MDR1-MDCK cell monolayers as test system: CCC1(c2ccccc2)C2=C(CC(C)(C)CC2=O)Nc2ncc(F)cc21 (single isomer, unassigned) [Compound 114A]
[A] 20 10^−6 cm/s

[Q] Which measured MDCK Permeability (MDR1-MDCK); Mean; Papp(B-A) (10^−6 cm/s) belongs to CCC1(c2cccc(O)c2)C2=C(CC(C)(C)CC2=O)Nc2ncccc21 (single isomer, unassigned) [Compound 1004A] , tested on MDR1-MDCK cell monolayers?
[A] 42 10^−6 cm/s

[Q] Find MDCK Permeability (MDR1-MDCK); Mean; Papp(B-A) (10^−6 cm/s) (MDR1-MDCK cell monolayers) for the entry CCC1(c2ccccc2)C2=C(CC(C)(C)CC2=O)Nc2ncc(C(F)(F)F)cc21 (single isomer, unassigned) [Compound 133B]
[A] 16 10^−6 cm/s

The origin of these recorded values is patent US20260103465A1.
